Attribution: patent US20260092071A1

tested-system: SMARCA4 (Homo sapiens)
Sequence (P51532 whole entry): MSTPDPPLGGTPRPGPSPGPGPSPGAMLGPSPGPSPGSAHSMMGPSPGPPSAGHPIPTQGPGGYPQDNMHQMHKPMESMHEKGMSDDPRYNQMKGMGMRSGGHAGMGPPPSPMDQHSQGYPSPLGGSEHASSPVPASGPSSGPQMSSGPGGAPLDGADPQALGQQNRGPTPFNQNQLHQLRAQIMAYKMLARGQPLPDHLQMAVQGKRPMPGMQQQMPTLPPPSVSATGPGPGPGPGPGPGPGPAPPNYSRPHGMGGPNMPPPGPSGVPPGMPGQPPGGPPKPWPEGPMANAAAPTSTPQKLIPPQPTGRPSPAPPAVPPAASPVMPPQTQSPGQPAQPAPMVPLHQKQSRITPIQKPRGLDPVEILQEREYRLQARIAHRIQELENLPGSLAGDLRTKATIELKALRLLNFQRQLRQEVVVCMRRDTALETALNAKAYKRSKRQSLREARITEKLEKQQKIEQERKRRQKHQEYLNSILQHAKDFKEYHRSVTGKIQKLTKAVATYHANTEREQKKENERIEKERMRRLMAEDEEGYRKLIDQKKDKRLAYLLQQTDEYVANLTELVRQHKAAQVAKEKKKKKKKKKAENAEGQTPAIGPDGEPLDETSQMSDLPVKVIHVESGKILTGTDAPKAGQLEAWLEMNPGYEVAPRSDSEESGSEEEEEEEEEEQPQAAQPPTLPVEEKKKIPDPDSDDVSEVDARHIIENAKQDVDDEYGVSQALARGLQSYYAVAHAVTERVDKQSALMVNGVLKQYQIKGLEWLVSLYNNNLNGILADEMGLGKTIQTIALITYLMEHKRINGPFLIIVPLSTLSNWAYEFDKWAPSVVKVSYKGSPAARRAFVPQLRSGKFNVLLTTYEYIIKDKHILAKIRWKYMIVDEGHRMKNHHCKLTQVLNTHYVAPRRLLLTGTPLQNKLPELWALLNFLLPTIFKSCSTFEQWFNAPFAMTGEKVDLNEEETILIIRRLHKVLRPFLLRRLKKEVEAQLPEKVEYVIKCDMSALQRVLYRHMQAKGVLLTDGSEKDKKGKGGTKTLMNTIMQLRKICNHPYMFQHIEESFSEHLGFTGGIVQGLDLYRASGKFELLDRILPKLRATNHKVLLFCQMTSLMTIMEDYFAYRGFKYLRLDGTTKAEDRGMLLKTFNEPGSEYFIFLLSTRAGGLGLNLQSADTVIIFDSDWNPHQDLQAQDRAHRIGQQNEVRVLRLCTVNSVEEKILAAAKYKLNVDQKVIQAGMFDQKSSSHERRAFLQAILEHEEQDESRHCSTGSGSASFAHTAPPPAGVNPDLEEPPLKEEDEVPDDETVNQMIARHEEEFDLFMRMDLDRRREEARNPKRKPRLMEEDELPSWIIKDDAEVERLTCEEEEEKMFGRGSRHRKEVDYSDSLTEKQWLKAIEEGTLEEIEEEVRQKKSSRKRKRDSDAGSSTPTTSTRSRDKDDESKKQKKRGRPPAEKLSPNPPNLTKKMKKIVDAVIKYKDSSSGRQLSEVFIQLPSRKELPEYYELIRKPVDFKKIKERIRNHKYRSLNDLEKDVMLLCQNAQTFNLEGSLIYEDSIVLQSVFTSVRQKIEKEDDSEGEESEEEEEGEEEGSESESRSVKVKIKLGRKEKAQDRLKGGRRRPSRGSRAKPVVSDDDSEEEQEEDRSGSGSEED
test-protocol: HiBiT assay for protein degradation, Hela SMARCA4-HiBiT cells (A series)
Type: cell-based
Design: fuse HiBiT to the carboxy terminus of SMARCA2 (Promega CS302365) or SMARCA4 (Promega CS3023225); host or cells: HeLa (CRISPR/Cas9 HiBiT knock-in)
details: Hela SMARCA4-HiBiT cells, 24 hours treatment; read-out: SMARC A4 Hela HiBit Dmax
Listed compounds paired with reported Dmax

| chemical-smiles | Dmax |
| --- | --- |
| COC(=O)C1CN(C[C@H](NC(=O)[C@@H]2C[C@@H](O)CN2C(=O)[C@@H](n2cc([C@H]3CC[C@H](CN4CCC(c5ccc6c(c5)-n5c(nc(=O)c7c(Cl)cccc75)C65CCCCC5)CC4)CC3)nn2)C(C)(C)C)c2ccc(-c3scnc3C)cc2)C1 | < 50% |
| Cc1ncsc1-c1ccc([C@H](Cn2cc(CN3CCC(c4ccc5c(c4)-n4c(nc(=O)c6c(Br)cccc64)C54CCCCC4)CC3)nn2)NC(=O)[C@@H]2C[C@@H](O)CN2C(=O)[C@@H](n2cc(C3CC3)nn2)C(C)(C)C)cc1 | 70 to 90% |
| Cc1ncsc1-c1ccc([C@H](CN2CCOCC2)NC(=O)[C@@H]2C[C@@H](O)CN2C(=O)[C@@H](n2cc([C@H]3C[C@H](CN4CC5(CCC(c6ccc7c(c6)-n6c(nc(=O)c8c(Cl)cccc86)C76CCCCC6)CC5)C4)C3)nn2)C(C)(C)C)cc1 | 70 to 90% |

For the compound Cc1ncsc1-c1ccc([C@H](C)NC(=O)[C@@H]2C[C@@H](O)CN2C(=O)[C@H](C2CCN(C(=O)CCCN3CCC(c4ccc5c(c4)-n4c(nc(=O)c6c(Cl)cccc64)C54CCCCC4)CC3)CC2)n2cc(C3CC3)nn2)cc1 , report Dmax.
< 50%

Tell me measured Dmax for Cc1ncsc1-c1ccc([C@H](CN2CCOCC2)NC(=O)[C@@H]2C[C@@H](O)CN2C(=O)[C@@H](n2cc([C@H]3CC[C@H](CN4CCC(c5ccc6c(c5)-n5c(nc(=O)c7c(Cl)cccc75)C6(C)C)CC4)CC3)nn2)C(C)(C)C)cc1 please.
< 50%

Retrieve Dmax measured for Cc1ncsc1-c1ccc([C@H](CN2CCC(C(F)(F)F)CC2)NC(=O)[C@@H]2C[C@@H](O)CN2C(=O)[C@@H](n2cc([C@H]3CC[C@H](CN4CCC(c5ccc6c(c5)-n5c(nc(=O)c7c(Cl)cccc75)C65CCCCC5)CC4)CC3)nn2)C(C)(C)C)cc1 and print it.
50 to 69%

Note down Dmax recorded for Cc1ncsc1-c1ccc([C@H](C)NC(=O)[C@@H]2C[C@@H](O)CN2C(=O)[C@@H](n2cc([C@H]3CC[C@H](CN4CCC(c5cnc6c(c5)-n5c(nc(=O)c7c(Br)cccc75)C65CCCCC5)CC4)CC3)nn2)C(C)(C)C)cc1
< 50%

Return reported Dmax. Input compound: Cc1ncsc1-c1ccc([C@H](CN2CCOCC2)NC(=O)[C@@H]2C[C@@H](O)CN2C(=O)[C@H](C2CCCCC2)n2cc([C@H]3CC[C@H](CN4CCC(c5ccc6c(c5)-n5c(nc(=O)c7c(Cl)cccc75)C6(C)C)CC4)CC3)nn2)cc1
50 to 69%
